Recorded pEC50, one value per entry.
target: human KOR (Homo sapiens, UniProt P41145); assay: PathHunter β-arrestin2 recruitment assay, U2OS-hKOR-β-arrestin2 cells; format: cell-based; conditions: U2OS cells coexpressing hKOR and β-arrestin2; tested up to 10 μM; read-out: β-arrestin2 recruitment EC50 (dash symbol)
Sequence (P41145 whole entry): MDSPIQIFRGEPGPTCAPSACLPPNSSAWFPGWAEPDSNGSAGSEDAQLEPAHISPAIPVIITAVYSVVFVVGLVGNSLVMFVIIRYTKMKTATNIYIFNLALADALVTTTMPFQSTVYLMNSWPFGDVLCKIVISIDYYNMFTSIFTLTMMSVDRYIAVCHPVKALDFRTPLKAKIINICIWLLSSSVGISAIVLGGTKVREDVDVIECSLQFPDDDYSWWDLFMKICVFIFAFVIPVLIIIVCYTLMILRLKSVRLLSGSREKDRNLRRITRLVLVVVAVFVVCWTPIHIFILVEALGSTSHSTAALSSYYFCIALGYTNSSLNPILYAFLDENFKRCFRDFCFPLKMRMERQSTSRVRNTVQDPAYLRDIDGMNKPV
pEC50: −log10 of the molar value.

Exercise: Identify measured pEC50 corresponding to Cc1cc2n(n1)C1(CCN(C(=O)c3ccc(Cl)cc3)CC1)CC(=O)N2CC1CC1
Solution: < 5.00

Exercise: Identify measured pEC50 associated with Cc1cc2n(n1)C1(CCN(C(=O)c3cccc(F)c3)CC1)CC(=O)N2CC1CC1
Solution: < 5.00
